System: TAB109
experiment_summary: qHTS profiling for inhibitors of Plasmodium falciparum proliferation (AID 504749); note: nearly all actives have a fitted effect of over 60% in size
condition_parameters: P. falciparum in erythrocytes, SYBR Green DNA, 72 h; series mostly up to 28.7 µM
Results filed as inconclusive are left out. Active and inactive are the calls of the source. Calls come from the whole dose curve; as a rule, active = well fitted inhibition curve with a large enough effect; inconclusive = small, poorly fitted or top-dose-only effect; inactive = flat fitted curve, though single readings scatter.
Classes used: 1.0 = active, 0.0 = inactive

molecule	subject_of_test	label_value
CC(CNC(=O)c1cccnc1)NC(=O)c1cccnc1 (stereo not drawn)	TAB109	0.0
CN1CCc2c(c3ccccc3n2Cc2ccccc2)C1	TAB109	0.0
CO[C@H]1C[C@@H]2CC[C@@H](C)[C@@](O)(O2)C(=O)C(=O)N2CCCC[C@H]2C(=O)O[C@H]([C@H](C)C[C@@H]2CC[C@@H](OC(=O)C(C)(CO)CO)[C@H](OC)C2)CC(=O)[C@H](C)/C=C(\C)[C@@H](O)[C@@H](OC)C(=O)[C@H](C)C[C@H](C)/C=C/C=C/C=C/1C	TAB109	0.0
CCOC(C)OCC	TAB109	0.0
C=CC[N+]1([C@H]2C[C@H]3[C@@H]4CC[C@H]5C[C@H](O)[C@@H](N6CCOCC6)C[C@]5(C)[C@H]4CC[C@]3(C)[C@H]2OC(C)=O)CCCC1	TAB109	1.0
CCCCCCCCCCCCCCCCCC(=O)OCC(C)O (stereo not drawn)	TAB109	0.0
O=C(O)Cc1nn(Cc2ccc(Br)cc2F)c(=O)c2ccccc12	TAB109	0.0
CCCCCCCCCC(=O)NO	TAB109	0.0
CN1CCC(OC(=O)C(Oc2ccc(Cl)cc2)Oc2ccc(Cl)cc2)CC1	TAB109	0.0
[O-][N+](=Nc1ccccc1)c1ccccc1	TAB109	0.0
CN1c2c(nc(N)[nH]c2=O)NCC1CNc1ccc(C(=O)NC(CCC(=O)O)C(=O)O)cc1 (stereo not drawn)	TAB109	0.0
CCCC(=O)O	TAB109	0.0
ClC(Cl)Cl	TAB109	0.0

====

subject_of_test: Voltage-gated inwardly rectifying potassium channel KCNH2 (Homo sapiens) (UniProt Q12809)
Sequence (Q12809 whole entry, looked up): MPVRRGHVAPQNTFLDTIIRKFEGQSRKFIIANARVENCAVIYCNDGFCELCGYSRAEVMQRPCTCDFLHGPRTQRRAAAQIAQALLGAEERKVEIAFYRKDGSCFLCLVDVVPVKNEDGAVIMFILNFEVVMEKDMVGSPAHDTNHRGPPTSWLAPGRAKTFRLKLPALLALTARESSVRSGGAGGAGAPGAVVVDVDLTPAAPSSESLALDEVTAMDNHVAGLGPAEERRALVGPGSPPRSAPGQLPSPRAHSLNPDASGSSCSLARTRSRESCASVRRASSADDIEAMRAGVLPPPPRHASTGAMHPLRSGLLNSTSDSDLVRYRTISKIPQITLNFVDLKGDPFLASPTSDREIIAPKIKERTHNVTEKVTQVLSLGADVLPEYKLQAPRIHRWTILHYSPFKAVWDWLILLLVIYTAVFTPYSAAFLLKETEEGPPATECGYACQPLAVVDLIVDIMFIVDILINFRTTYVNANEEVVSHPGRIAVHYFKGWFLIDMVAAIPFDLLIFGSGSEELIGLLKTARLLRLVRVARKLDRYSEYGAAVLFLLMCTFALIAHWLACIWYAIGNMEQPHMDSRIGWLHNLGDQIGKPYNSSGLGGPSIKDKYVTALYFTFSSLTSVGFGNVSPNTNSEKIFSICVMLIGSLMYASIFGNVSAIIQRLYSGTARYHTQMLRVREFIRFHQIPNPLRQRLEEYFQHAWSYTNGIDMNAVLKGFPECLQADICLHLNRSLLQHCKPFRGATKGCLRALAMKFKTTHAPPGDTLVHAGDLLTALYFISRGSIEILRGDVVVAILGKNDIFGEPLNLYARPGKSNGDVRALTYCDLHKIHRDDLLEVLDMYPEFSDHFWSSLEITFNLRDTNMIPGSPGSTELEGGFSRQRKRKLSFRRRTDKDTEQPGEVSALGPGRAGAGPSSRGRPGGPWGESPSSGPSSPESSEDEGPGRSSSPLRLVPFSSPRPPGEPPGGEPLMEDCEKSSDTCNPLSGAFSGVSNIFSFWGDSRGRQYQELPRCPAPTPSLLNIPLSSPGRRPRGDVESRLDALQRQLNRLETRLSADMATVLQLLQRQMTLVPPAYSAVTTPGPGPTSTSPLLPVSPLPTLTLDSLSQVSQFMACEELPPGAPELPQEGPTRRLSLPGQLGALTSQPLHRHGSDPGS
experiment_summary: qHTS Assay for Small Molecule Inhibitors of the Human hERG Channel Activity (AID 588834);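 note: lower thallium flux fluorescence means stronger hERG block; nearly all actives have a fitted effect of over 50% in size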
condition_parameters: U2OS BacMam hERG, FluxOR thallium flux fluorescence; series mostly up to 46.1 µM
Inconclusive results are not listed. Active and inactive are the calls of the source. The call rests on the fitted dose curve; in most records, active means well fitted inhibition curve with a large enough effect; inconclusive means small, poorly fitted or top-dose-only effect; inactive means flat fitted curve, though single readings scatter.
Outcomes: active, inactive

compound	label_value
O=S(=O)(O)CC(S)CS (configuration not stated)	inactive
CN=C1C=CC(=C(c2ccc(N(C)C)cc2)c2ccc(N(C)C)cc2)C=C1	active
CC(=O)N=c1sc(S(N)(=O)=O)nn1C	inactive
C=C1c2c(Cl)ccc(O)c2C(O)=C2C(=O)[C@]3(O)C(O)=C(C(N)=O)C(=O)[C@@H](N(C)C)[C@@H]3[C@@H](O)[C@H]12	inactive
C[Si](C)(C)O[Si](C)(C)C	inactive
CC(O)[C@@H]1NC(=O)[C@H](Cc2ccccc2)NC(=O)[C@H](C(C)O)NC(=O)[C@H](CCCCN)NC(=O)[C@H](Cc2c[nH]c3ccccc23)NC(=O)[C@H](Cc2ccccc2)NC(=O)[C@H](Cc2ccccc2)NC(=O)[C@H](CC(N)=O)NC(=O)[C@H](CCCCN)NC(=O)[C@@H](NC(=O)CNC(=O)[C@H](C)N)CSSC[C@@H](C(=O)O)NC(=O)[C@H](CO)NC1=O (some centres not stated)	inactive
O=[n+]1ccn([O-])c2ccccc21	inactive
O=P(O)(O)O	inactive
C=C[C@]1(C)C[C@@H](OC(=O)CSCCN(CC)CC)[C@]2(C)[C@H](C)CC[C@]3(CCC(=O)[C@H]32)[C@@H](C)[C@@H]1O	active
FC(F)(F)C(F)(F)C(F)(F)C(F)(F)C(F)(F)F	inactive
CC1=C(/C=C/C(C)=C/C=C/C(C)=C/C=C/C=C(C)/C=C/C=C(C)/C=C/C2=C(C)C[C@@H](O)CC2(C)C)C(C)(C)C[C@H](O)C1	inactive
CC[C@H](CC[C@@H](C)[C@H]1CC[C@H]2[C@@H]3CC=C4C[C@@H](O)CC[C@]4(C)[C@H]3CC[C@]12C)C(C)C	inactive
C=CC[C@@H]1/C=C(\C)C[C@H](C)C[C@H](OC)[C@H]2O[C@@](O)(C(=O)C(=O)N3CCCC[C@H]3C(=O)O[C@H](/C(C)=C/[C@@H]3CC[C@@H](O)[C@H](OC)C3)[C@H](C)[C@@H](O)CC1=O)[C@H](C)C[C@@H]2OC	inactive
CCN(CC)CCOc1ccc2nc(N(C)C)sc2c1	inactive
CS(=O)(=O)c1ccc([C@@H](O)[C@@H](COC(=O)CN)NC(=O)C(Cl)Cl)cc1	inactive
C=CC(=O)O	inactive
CC(C)(C)NCC(O)CSc1nc(-c2ccc(C(N)=O)s2)cs1 (configuration not stated)	inactive
C=CC[N+]1([C@H]2C[C@H]3[C@@H]4CC[C@H]5C[C@H](O)[C@@H](N6CCOCC6)C[C@]5(C)[C@H]4CC[C@]3(C)[C@H]2OC(C)=O)CCCC1	inactive
CCCCCCCCCC(=O)NO	inactive
CCCCC(O)c1ccccc1 (configuration not stated)	inactive
CCCC(=O)O	inactive
O=C(CO)[C@@H](O)[C@H](O)[C@@H](O)C(=O)O	inactive
CCN1\C(=C/C=C/C=C/c2sc3ccccc3[n+]2CC)Sc2ccccc21	active
C=CC1=C(C(=O)O)N2C(=O)[C@@H](NC(=O)/C(=N\O)c3csc(N)n3)[C@H]2SC1 (stereo in doubt)	inactive
CC/C=C\C/C=C\C/C=C\C/C=C\C/C=C\C/C=C\CCC(=O)O	inactive
CC(O)[C@H]1CC[C@H]2[C@@H]3CC[C@@H]4C[C@@H](O)CC[C@]4(C)[C@H]3CC[C@]12C (some centres not stated)	inactive
CCCOC(=O)c1ccccc1O	inactive
O=C(O)c1ccc(NC(=O)[C@H](Cc2ccc(O)cc2)NC(=O)c2ccccc2)cc1	inactive
COc1cc(S(C)=O)ccc1-c1nc2ncccc2[nH]1 (configuration not stated)	inactive
O=C(O)COc1ccccc1/C=N/NC(=O)c1ccncc1	inactive
N[C@@H](Cc1cc(I)c(Oc2ccc(O)c(I)c2)c(I)c1)C(=O)O	inactive
CO/N=C(\C(=O)N[C@@H]1C(=O)N2C(C(=O)[O-])=C(C[n+]3ccc(N)n3CCO)CS[C@H]12)c1csc(N)n1	inactive
O.O.O.O.O.O.O.O=S(=O)([O-])[O-].[Co+2]	inactive
CC1(C)[C@@H]2CC[C@@]1(C)[C@H](OC(=O)CSC#N)C2	inactive
CNC(=O)C[C@@H](N)C(=O)N[C@@H](C(=O)N[C@@H]1C(=O)N2[C@@H]1SC(C)(C)[C@@H]2C(=O)O)c1ccc(O)cc1	inactive
C/C(=C\C(=O)OCCCCCCCCC(=O)O)C[C@@H]1OC[C@H](C[C@@H]2O[C@H]2[C@@H](C)[C@H](C)O)[C@@H](O)[C@H]1O	inactive
CC(CN(C)C)CN1c2ccccc2Sc2ccc(C(F)(F)F)cc21 (configuration not stated)	active
